target: Cdk2(S181C) (C177A) (Homo sapiens, UniProt P24941, C177A/S181C); construct: poly-histidine; made in house; host or cells: E. coli; test: Kinetic thiol consumption assay with Cdk2 mutant S181C; assay type: binding; set-up: key: rate constant with Cdk2 ÷ rate constant with model thiol (fold); settings: Cdk2 S181C, additional mutation C177A
Classify by measured Rate enhancement, Cdk2 S181C: 1 (yes) if it is equal to or exceeds 0.8, 0 (no) if it is smaller.

1) C=CC(=O)Nc1nc2cc3c(cc2s1)OC(F)(F)O3 = 0 (no)
2) C=CC(=O)NC1C2C3CCC(C3)C12 (centres unmarked) = 0 (no)

Assess whether reported Rate enhancement, Cdk2 S181C for C=CC(=O)NC1CC2CC1C1CCCC21 (centres unmarked) sits at 0.8 or higher.
0 (no)

Tell me whether Rate enhancement, Cdk2 S181C is at least 0.8 here: C=CC(=O)N1CC2CN(Cc3ccccc3)CC2C1 (centres unmarked)
0 (no)

Does the reported Rate enhancement, Cdk2 S181C for C=CC(=O)N1CC2(CCC2)c2c(F)cccc21 fall at or above the 0.8 mark?
0 (no)

Kindly determine if Rate enhancement, Cdk2 S181C recorded for C=CC(=O)NCCNC(=O)c1ccccc1 is above or exactly 0.8.
1 (yes)

Does C=CC(=O)Nc1nc2c(s1)CCCCCC2 have a reported Rate enhancement, Cdk2 S181C of at least 0.8?
0 (no)
